# assay.overview: Nuclear factor erythroid 2-related factor 2/antioxidant responsive element (Nrf2/ARE) small molecule agonists: qHTS cell viability counter screen in human keratinocytes (AID 1919968); also: nearly all actives have a fitted effect of over 55% in size
# measurement.setup: KeratinoSens HaCaT ARE cells viability, CellTiter-Fluor, 24 h; series mostly up to 92.4 µM
Records with an inconclusive call do not appear. The source made the active and inactive calls. Calls follow the shape of the dose curve; as a rule, active = well fitted cell-killing curve with a large enough effect in the repeat runs; inconclusive = weak or mixed curves, or effect the other way; inactive = flat fitted curve, though single readings scatter.
assay.metric: outcome

[
  {
    "chemical.string": "NCC(=O)CCC(=O)O",
    "test.result": "inactive"
  },
  {
    "chemical.string": "CC(=O)Oc1ccc(C(C)=O)cc1",
    "test.result": "inactive"
  },
  {
    "chemical.string": "O=S(=O)(O)c1ccc(Cl)cc1",
    "test.result": "inactive"
  },
  {
    "chemical.string": "O=C(O)Cc1ccccc1Oc1ccc(Cl)cc1Cl",
    "test.result": "inactive"
  }
]

----------
# assay.overview: Nuclear factor erythroid 2-related factor 2/antioxidant responsive element (Nrf2/ARE) small molecule agonists: qHTS cell viability counter screen in human keratinocytes (AID 1919968); also: nearly all actives have a fitted effect of over 55% in size
# measurement.setup: KeratinoSens HaCaT ARE cells viability, CellTiter-Fluor, 24 h; series mostly up to 92.4 µM
Records with an inconclusive call do not appear. The source made the active and inactive calls. Calls come from the whole dose curve; as a rule, active = well fitted cell-killing curve with a large enough effect in the repeat runs; inconclusive = weak or mixed curves, or effect the other way; inactive = flat fitted curve, though single readings scatter.
Your response should consist of one outcome taken from active, inactive

[
  {
    "compound": "COc1ccccc1Oc1c(NS(=O)(=O)c2ccc(C(C)(C)C)cc2)nc(-c2ncccn2)nc1OCCO",
    "assigned.category": "inactive"
  },
  {
    "compound": "CCCCCC(C)N (stereo not drawn)",
    "assigned.category": "inactive"
  },
  {
    "compound": "Cc1ccc(C(=O)c2ccc(CC(=O)O)n2C)cc1",
    "assigned.category": "inactive"
  },
  {
    "compound": "O=C(Nc1ccc2c(O)c(N=Nc3ccc(N=Nc4ccc(S(=O)(=O)O)cc4)cc3)c(S(=O)(=O)O)cc2c1)c1ccccc1",
    "assigned.category": "active"
  },
  {
    "compound": "CC(C)C[C@@H]1[C@H](c2ccccc2)OC(=O)N1CCCN1CCCCCC1",
    "assigned.category": "inactive"
  },
  {
    "compound": "CCCCCCCC[P+](CCCCCCCC)(CCCCCCCC)CCCCCCCC",
    "assigned.category": "active"
  },
  {
    "compound": "CCCCOCCOC(=O)COc1cc(Cl)c(Cl)cc1Cl",
    "assigned.category": "inactive"
  },
  {
    "compound": "CC(C)=CCC[C@H](C)CCO",
    "assigned.category": "inactive"
  }
]

Which outcome was assigned to "O=c1[nH]ncc2ccccc12" in this test?
inactive

Which outcome was assigned to COc1ccc2[nH]c(S(=O)Cc3ncc(C)c(OC)c3C)nc2n1 (stereo not drawn) in this test?
inactive

Which outcome was assigned to "Clc1cc(Cl)c(-c2c(Cl)c(Cl)cc(Cl)c2Cl)cc1Cl" in this test?
inactive

----------
# tested.on: D(2) dopamine receptor (Homo sapiens)
# assay.overview: Dopamine D2 receptor (DRD2) small molecule antagonists, cell-based qHTS assay (AID 1963595); also: potency is read from the fitted curve at half-maximal effect
# measurement.setup: HEK293-DRD2 cAMP HTRF antagonist mode; series mostly up to 92.4 µM
# Protocol: National Center for Advancing Translational Sciences [NCATS] Division of Preclinical Innovation [DPI] U.S. Environmental Protection Agency [EPA] National Institutes of Environmental Health Sciences [NIEHS] National Toxicology Program [NTP] […] DRD2-Hek293 cells were dispensed at 600 cells/3uL/well in 1536-well white plates using a Multidrop Dispenser. […] The fluorescence intensity in the plates was measured at 340 nm excitation and 665 & 620 nm emission by an Envision plate reader.
Inconclusive results are not listed. Active and inactive are the calls of the source. Calls follow the shape of the dose curve; as a rule, active = well fitted inhibition curve with a large enough effect in the signal ratio in the repeat runs, with a control signal flat; inconclusive = weak or mixed curves, or effect the other way; inactive = flat fitted curve, though single readings scatter; the % refers to the signal ratio.
Entries and their measured Potency follow.

[
  {
    "chemical.string": "Cc1cc(O)c(C(C)(C)C)cc1Sc1cc(C(C)(C)C)c(O)cc1C",
    "test.result": "21.6 µM (active)"
  },
  {
    "chemical.string": "C[n+]1cc2c3c(ccc2c2ccc4cc5c(cc4c21)OCO5)OCO3",
    "test.result": "13 µM (active)"
  }
]

Here is another compound to look at.
Potency lookup needed for "COc1ccccc1N1CCN(CCCCNC(=O)c2ccc(-c3ccc(C(C)=O)cc3)cc2)CC1" , thanks.
0.75 µM (active)
